# Test system: Digitaria sanguinalis (DIGSA)
# methodNotes: Example B3 herbicidal action, post-emergence
# Type: in vivo
# testParameters: 1000 g/ha, after 13 days, 100=total damage to plant, 0=no damage to plant
So I've got a bunch of compounds here, and I need their damage to plant, Digitaria sanguinalis (DIGSA) values.

Prompt: Bench note: what damage to plant, Digitaria sanguinalis (DIGSA) did CCn1c(=O)c(-c2c(Cl)ccc(Cl)c2Cl)c(OC(=O)C(C)C)c2nccnc21 show?
Response: 2

Prompt: Bench note: what damage to plant, Digitaria sanguinalis (DIGSA) did CCn1c(=O)c(-c2cccc(C(F)(F)F)c2Cl)c(OC(=O)C(C)(C)C)c2nccnc21 show?
Response: 0

Prompt: Bench note: what damage to plant, Digitaria sanguinalis (DIGSA) did COc1cccc(-c2c(O)c3nccnc3[nH]c2=O)c1OC show?
Response: 6

Prompt: Bench note: what damage to plant, Digitaria sanguinalis (DIGSA) did O=c1[nH]c2nccnc2c(O)c1-c1ccc(C(F)(F)F)cc1Br show?
Response: 0
